// data source = ChEMBL document CHEMBL5614432

- assay-summary: Cytotoxicity against human MCF7-DOX cells incubated for 24 hrs by MTT assay
- Type: functional, cell-based
measure: IC50

{"columns": ["chemical-structure", "obs-value"],
 "data": [
  ["COc1c(O)cc(O)c2c(=O)cc(-c3ccccc3)oc12", "~150 µM"]
]}

###

- assay-summary: cells
- condition-info: Homo sapiens, Bel-7402, 48 h
- Description: Cytotoxicity against human BEL-7402/ADM cells incubated for 48 hrs by MTT assay
measure: IC50

{"columns": ["chemical-structure", "measure", "obs-value"],
 "data": [
  ["O=c1cc(-c2ccccc2)oc2cc(O)cc(O)c12", "IC50", "~30 µM"],
  ["O=c1cc(-c2ccc(O)cc2)oc2cc(O)cc(O)c12", "IC50", "~50 µM"]
]}

###

- measured-target: Nuclear factor erythroid 2-related factor 2 (Homo sapiens, UniProt Q16236)
- Sequence (Q16236 whole entry): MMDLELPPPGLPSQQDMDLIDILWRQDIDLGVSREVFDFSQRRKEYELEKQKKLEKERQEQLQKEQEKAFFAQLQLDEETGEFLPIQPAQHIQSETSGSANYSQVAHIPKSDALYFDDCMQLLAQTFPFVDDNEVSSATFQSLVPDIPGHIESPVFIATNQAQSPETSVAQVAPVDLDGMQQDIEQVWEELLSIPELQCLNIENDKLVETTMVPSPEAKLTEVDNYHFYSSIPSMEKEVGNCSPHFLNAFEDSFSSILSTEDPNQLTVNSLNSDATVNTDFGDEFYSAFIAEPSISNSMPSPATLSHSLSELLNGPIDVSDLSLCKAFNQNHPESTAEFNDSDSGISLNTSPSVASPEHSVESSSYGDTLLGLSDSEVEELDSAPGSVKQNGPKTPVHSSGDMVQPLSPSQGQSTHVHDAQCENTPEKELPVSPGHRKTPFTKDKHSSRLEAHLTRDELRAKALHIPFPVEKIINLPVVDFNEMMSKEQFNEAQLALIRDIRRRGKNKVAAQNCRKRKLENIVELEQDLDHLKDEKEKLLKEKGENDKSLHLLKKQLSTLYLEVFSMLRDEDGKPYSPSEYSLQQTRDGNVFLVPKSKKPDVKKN
- assay-summary: Inhibition of NRF2 in human A549 cells
- Type: cell-based
measure: IC50 (nM)

{"columns": ["molecule", "measure", "reading-unit", "obs-value"],
 "data": [
  ["O=C(CC1NCCCC1O)Cn1cnc2cc(Br)c(Cl)cc2c1=O (stereo unspecified)", "IC50", "nM", 37.2]
]}

###

- Tested on: T98G
- assay-summary: Inhibition of cell viability in human T98G cells incubated for 24 hrs by MTT assay
- Type: functional, cell-based
measure: IC50 (µM)

{"columns": ["chemical-structure", "measure", "obs-value"],
 "data": [
  ["CC(C)c1cccc(=O)c(O)c1", "IC50", 152]
]}
